test system: Shigella dysenteriae; test: Antimicrobial activity against Shigella dysenteriae after 24 hrs by two-fold broth serial dilution method; type: functional
EXPERIMENTAL READOUT: MIC

Value of measured MIC for the entry Cc1cc(=O)oc2cc(OCC(O)Cn3nnnc3C)ccc12 (stereo unspecified) : 4 to 512 µg/mL

// field: MIC; key: OC(Cn1cncn1)(Cn1cncn1)c1ccc(F)cc1F ; value = 1 to 256 µg/mL

MIC for CCn1cc(C(=O)O)c(=O)c2cc(F)c(N3CCNCC3)cc21 is 1 to 16 µg/mL

GET /value?item= Cc1cc(=O)oc2cc(OCC(O)Cn3nnnc3C)cc(OCC(O)Cn3nnnc3C)c12 (stereo unspecified) &field=MIC returns 32 to 512 µg/mL

The recorded MIC for Cc1cc(=O)oc2cc(OCC(O)Cn3cnnn3)cc(OCC(O)Cn3cnnn3)c12 (stereo unspecified) is 32 to 512 µg/mL

// Cc1cc(=O)oc2cc(OCC(O)Cn3cnnn3)ccc12 (stereo unspecified) : MIC value = 8 to 512 µg/mL
